System: TK-10 renal
Experiment: NCI-60 one-dose screen, 48 h (100 = growth as untreated, 0 = no growth, -100 = all killed)
Details: 10 µM unless noted
This is part of a sample that, as a whole, favours compounds with a hit. Of some 83,000 tested, about 20% had one in any assay.
measured metric: growth (%)
Report as a plain number; the unit % is understood.

compound	target under test	measurement unit	data value
CCOC(=O)n1ccn(C)c1=S	TK-10 renal	%	98.6
Cc1sc2nc(NCCc3c[nH]c4ccc(Cl)cc34)[nH]c(=O)c2c1C	TK-10 renal	%	63.9
C/C(=N\O)c1ccc(Cl)cc1	TK-10 renal	%	107

QUERY: Query growth for "COc1ccc2[nH]c(C(=O)N3CCN(C(=O)OCc4ccc5c(Cl)cc(Cl)c(O)c5n4)CC3)cc2c1"
RESULT: -99.2

QUERY: Query growth for "CCOC(=O)C#Cc1c(C(=O)OCC)nnn1Cc1ccc([N+](=O)[O-])cc1"
RESULT: -10.9

QUERY: Query growth for "Nc1ncnc2c1c(-c1cccc(Cl)c1)nn2CC(=O)N1CCOCC1"
RESULT: 97

QUERY: Query growth for CCCCCCCCCCCCCCCCOCCCOP(=O)(O)C1CCCN(O)C1=O (stereo not given)
RESULT: 33.1

QUERY: Query growth for "O=S(=O)(NCCCNc1nccc(-c2c(-c3ccc(F)c(O)c3)nc3occn23)n1)c1ccc(Cl)cc1"
RESULT: 103

QUERY: Query growth for "C=CC(=O)N1CCN(c2cccc(Oc3nccc(Nc4nnc(-c5ccc(Br)cc5)s4)n3)c2)CC1"
RESULT: 111

QUERY: Query growth for C[PH+](c1nc2ccccc2nc1[PH+](C)C(C)(C)C)C(C)(C)C.C[PH+](c1nc2ccccc2nc1[PH+](C)C(C)(C)C)C(C)(C)C.[Au+].[Cl-] (stereo not given)
RESULT: -91.6

QUERY: Query growth for "CCOC(=O)[C@@H]1CSC(CC)=C(C(=O)O)N1"
RESULT: 110

QUERY: Query growth for "O=C1Nc2ccccc2/C1=C/c1cccn1CCCCn1c2ccccc2c(=O)c2ccccc21"
RESULT: 104

QUERY: Query growth for "NS(=O)(=O)c1ccccc1NC(=O)Nc1nc2ccccc2s1"
RESULT: 153
